- tested.target: human topoIIβ (Homo sapiens)
pIC50: −log10 of the molar value.
reported.property: pIC50

Short answer on human topoIIβ (Homo sapiens) for CN(C)c1ccc(Nc2nc(-c3ccncc3)nc3c2CC(N)CC3)cc1 (stereo not shown) , pIC50: ~4.00

* * *

- System: HeLa cells
- test.protocol: cells
- recorded.conditions: Homo sapiens, 72 h, read-out: Cell proliferation IC50 ± SD
reported.property: IC50 (µM)
Your answer is read as µM, so omit the unit and give the number.

compound: NC1CCc2nc(-c3ccncc3)nc(Nc3cccc(F)c3)c2C1 (stereo not drawn) [Compound 1]
IC50, µM: 17

Short answer on HeLa cells for NC1CCc2nc(-c3ccncc3)nc(Nc3ccc(F)cc3)c2C1 (stereo not drawn) [Compound 10] , IC50: 20.8

Short answer on HeLa cells for COc1cccc(Nc2nc(-c3ccncc3)nc3c2CC(N)CC3)c1 (stereo not drawn) [Compound 11] , IC50: 17.2

Short answer on HeLa cells for CN(C)c1ccc(Nc2nc(-c3ccncc3)nc3c2CC(N)CC3)cc1 (stereo not drawn) [Compound 14] , IC50: 38.2

Short answer on HeLa cells for N[C@@H]1CCc2nc(-c3ccncc3)nc(Nc3cccc(F)c3)c2C1 [Compound 4] , IC50: 21.8

Short answer on HeLa cells for N[C@H]1CCc2nc(-c3ccncc3)nc(Nc3cccc(F)c3)c2C1 [Compound 3] , IC50: 17.1
